tgt: TuGluCl3 (glutamate-gated chloride channel 3) (Tetranychus urticae, UniProt T1KFH0)
Construct: homomeric WT TuGluCl3 receptor expressed in Xenopus laevis oocytes
Sequence (T1KFH0 36-542): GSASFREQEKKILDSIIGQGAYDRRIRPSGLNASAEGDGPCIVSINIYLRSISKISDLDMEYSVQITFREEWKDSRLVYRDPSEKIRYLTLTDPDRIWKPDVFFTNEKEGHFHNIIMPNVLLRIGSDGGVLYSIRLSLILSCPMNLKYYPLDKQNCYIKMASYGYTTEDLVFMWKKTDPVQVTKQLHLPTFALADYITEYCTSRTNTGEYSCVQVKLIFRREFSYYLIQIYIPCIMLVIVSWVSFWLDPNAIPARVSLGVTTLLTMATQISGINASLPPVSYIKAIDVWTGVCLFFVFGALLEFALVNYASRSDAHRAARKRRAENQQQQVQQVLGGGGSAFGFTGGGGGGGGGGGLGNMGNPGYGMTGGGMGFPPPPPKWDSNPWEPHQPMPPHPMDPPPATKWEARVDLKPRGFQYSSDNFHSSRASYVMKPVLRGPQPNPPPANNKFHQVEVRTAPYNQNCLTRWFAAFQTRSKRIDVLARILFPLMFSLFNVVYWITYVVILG
assay.procedure: two-electrode voltage clamp in Xenopus oocytes; agonist, also potentiates glutamate currents
endpoint.label: EC50

- compound: "OC(c1ccc(Cl)cc1)(c1ccc(Cl)cc1)C(Cl)(Cl)Cl"
  EC50: "3.58 µM"
- compound: "CCOC(=O)C(O)(c1ccc(Cl)cc1)c1ccc(Cl)cc1 [chlorobenzilate]"
  EC50: "2.78 µM"

Data point: CC(C)OC(=O)C(O)(c1ccc(Br)cc1)c1ccc(Br)cc1 [bromopropylate] ; EC50 = 3.23 µM
